- experimental-system: T1, human IGF-1 receptor (human, UniProt P08069 31-1367)
- T1 construct: whole, on cells; also called IGF-IR; IGR-1R
- protocol-details: competition with 125I-IGF-1, receptor membranes, SPA
Bridges are numbered along the chain shown (N, C = ends). Roman numbers before positions name the chains, in order. Where no end group is shown, it is not given here.
Field: % native IGF-1 activity (0.55 nM). Provide a value for each of the binders that follow.
Answers are plain numbers, in %.

binder | quantitative-result
IGF-1 A:In B(1-5)-IGF-1 B(YL)(6-30) (ligand, not fully specified (bridges); cysteine pairing not given here; also: C-terminal amide, chain not given here) chain 1: GIVDECCFRSCDLRRLEMYCA chain 2: FVNQHLCGAELVDALYLVCGDRGFYFNKPT | 2
IGF-1 A (H8 A9 N21):B(H5D10Y16L17 A22) DPI A-COOH (ligand) chain 1: GIVDECCHASCDLRRLEMYCN chain 2: GPEHLCGADLVDALYLVCGDAGFY | 2.4
IGF-1 A (H8 A9 N21):B(H5D10Y16L17) DPI A-COOH (ligand, disulfide I:6-I:11, I:20-II:18, I:7-II:6) chain 1: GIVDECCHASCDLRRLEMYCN-OH chain 2: GPEHLCGADLVDALYLVCGDRGFY-NH2 | 13.6

Next binder, please.
Could you share which % native IGF-1 activity (0.55 nM) value was measured for IGF-1 A:B(D10Y16L17) DPI A-COOH (ligand, disulfide I:6-I:11, I:20-II:18, I:7-II:6) chain 1: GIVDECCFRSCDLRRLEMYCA-OH chain 2: GPETLCGADLVDALYLVCGDRGFY-NH2 ?
8.1
